target: T1, human CX3CR1 (human, UniProt P49238 1-355)
T1 construct: overexpressed on CHO, BA/F3 or HEK293T cells; also called huCX3CR1; hCX3CR1
T1 sequence: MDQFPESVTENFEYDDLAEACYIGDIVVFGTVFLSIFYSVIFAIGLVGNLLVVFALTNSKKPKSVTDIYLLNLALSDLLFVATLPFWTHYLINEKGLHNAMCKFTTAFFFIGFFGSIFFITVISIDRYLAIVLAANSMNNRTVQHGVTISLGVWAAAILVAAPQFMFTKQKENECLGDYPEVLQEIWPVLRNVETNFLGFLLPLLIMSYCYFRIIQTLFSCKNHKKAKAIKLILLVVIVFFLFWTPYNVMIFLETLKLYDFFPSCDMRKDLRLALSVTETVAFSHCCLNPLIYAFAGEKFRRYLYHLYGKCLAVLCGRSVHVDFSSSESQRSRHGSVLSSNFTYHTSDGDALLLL
assayExplanation: A647-fractalkine competition FACS, CHO-huCX3CR1
pIC50: recorded values
Hey, just a heads up that pIC50 is the negative log base 10 of the concentration in molar.

As a guide, the following entries are already answered.
CX3CR1BIIPMP54B3 (VHH, also called 54B03; not shown: C-terminal c-myc and His6 tags) VHH: EVQLVESGGGSVQAGESLRLSCAASGSIFSSNAMAWYRQAPGKQRDLVAAINSVGITKYADSVKGRFTISRDNAKNTVYLQMNSLKPEDTAVYYCTSDPRRGWDTRYWGQGTQVTVSS : 7.60
CX3CR1BIIPMP54D5 (VHH, also called 54D05; CX3CR1BII54D5; not shown: C-terminal c-myc and His6 tags) VHH: EVQLVESGGGSVQAGESLRLSCAASGSIFSSNAMAWYRQAPPGKQRDLVALINSVGITKYADSVKGRFTISSDNAKNTVYLEMNSLKPEDTAVYYCTSDGRRGWDTRYWGQGTQVTVSS : 8.57
CX3CR1BIIPMP54G3 (VHH, also called 54G03; not shown: C-terminal c-myc and His6 tags) VHH: EVQLVESGGGSVQAGESLRLSCAASGSIFSSNAMAWYRQAPGKQRDLVALINSVGITKYADSVKGRFTISRDNAKNTVYLQMNSLKPEDTAVYYCTSDPRRGWDTRYWGQGTLVTVSS : 7.25
CX3CR1BIIPMP54A7 (VHH, also called 54A07; not shown: C-terminal c-myc and His6 tags) VHH: EVQLVESGGGSVQAGESLRLSCAASGTIFSSNAMAWYRQAPGKQRDLVAGINSVDITKYADSVKGRFTISRDNAKNTVYLQMNSLKPEDTAVYYCTSDPRRGWNTRYWGQGTQVTVSS : 7.96
CX3CR1BIIPMP54D8 (VHH, also called 54D08; CX3CR1BII54D08; not shown: C-terminal c-myc and His6 tags) VHH: EVQLVESGGGSVQAGGSLRLSCAASGSIFSSNAMAWYRQAPGKQRDLVAGINSVGITKYADSVKGRFTISRDNAKNTVYLQMNSLKPEDTAVYYCTSDPRRGWDTRYWGQGTLVTVSS : 7.82
CX3CR1BIIPMP54A12 (VHH, also called CX3CR1BII54A12; not shown: C-terminal c-myc and His6 tags) VHH: EVQLVESGGGSVQAGESLRLSCAASGSIFSSNAMAWYRQAPGKQRDLVAVINSVGITKYADSVKGRFTISGDNAKNTVYLQMNSLKPEDTAVYYCTSDARRGWDTRYWGQGTQVTVSS : 8.68
CX3CR1BIIPMP18E6 (VHH, family 13; also called 18E06; CX3CR1BII18E06; not shown: C-terminal c-myc and His6 tags) VHH: KVQLVESGGGLVQPGGSLRLSCATSGTIFSNNAMGWYRQAPGKKRDLVASISSSGSTNYADSVKGRFTVSRDNDKNTGYLQMNSLKPEDTGVYYCTLDARRGWNTAYWGQGAQVTVSS : 8.74

# evaluate next
Give the measured pIC50 of CX3CR1BIIPMP11H11 (VHH, family 9; also called CX3CR1BII11H11; not shown: C-terminal c-myc and His6 tags) VHH: EVQLVESGGGLVQAGGSLRLSCVASGRTFSSYAMGWFRQAPGKERAFVAGISGSASRKYYADSVKGRFTVSRDNARNTVYLQMNSLKPEDTAVYYCAASNSYPKVQFDYYGQGTQVTVSS . 7.77
